tested on: CCRIS mutagenicity, Ames/micronucleus/aberration tests; experiment: CCRIS mutagenicity studies; settings: Test System: AMES SALMONELLA TYPHIMURIUM; Strain/Indicator: TA2637; Metabolic Activation: NONE; Method: STANDARD PLATE
Calls of active or inactive are those of the source. No rule for the calls is given here.
Readout Kind: mutagenic call

CC[C@@]1(O)C[C@H](O[C@H]2C[C@H](N(C)C)[C@H](O[C@H]3C[C@H](O)[C@H](O[C@H]4CCC(=O)[C@H](C)O4)[C@H](C)O3)[C@H](C)O2)c2c(cc3c(c2O)C(=O)c2c(O)cccc2C3=O)[C@H]1C(=O)OC
active; positive
C[C@@H]1O[C@@H](O[C@H]2C[C@](O)(C(=O)CO)Cc3c(O)c4c(c(O)c32)C(=O)c2ccccc2C4=O)C[C@H](N)[C@@H]1O
active; positive
